Tested on: MiaPaca2
Assay: MiaPaca2 proliferation
Format: cell-based
Settings: Homo sapiens, MIA PaCa-2; 10 μM; read-out: % inh of proliferation in MiaPaca2
inhibition at 10 µM by entry:

Problem: # query: inhibition at 10 µM of entry COC1CCCN(c2nc(-c3nccn3C)nc3sc(-c4ccn(C(C)C)n4)c(C)c23)C1 (racemic)
Solution: 76 to 100%

Problem: If you can, please state the reported inhibition at 10 µM value of CO[C@H]1C[C@H](CNc2nc(-c3nccn3C)nc3sc(-c4ccn(C(C)C)n4)c(C)c23)C1 .
Solution: 76 to 100%

Problem: Which inhibition at 10 µM value is on record for COc1cc(Cn2c(-c3nccn3C)nc3sc(-c4ccn(C(C)C)n4)c(C)c3c2=O)ncn1 ?
Solution: 0%

Problem: Name the recorded inhibition at 10 µM for COCCCCOc1nc(-c2nccn2C)nc2sc(-c3ccn(C(C)C)n3)c(C)c12 .
Solution: 26 to 45%

Problem: What value of inhibition at 10 µM has been reported for the following compound? COc1cc(-c2sc3nc(-c4nccn4C)nc(N[C@@H]4CC[C@H](OC)C4)c3c2-c2ccccc2)ccn1 (racemic)
Solution: 76 to 100%

Problem: Item COCCCOc1nc(-c2nccn2C)nc2sc(-c3ccn(C(C)C)n3)c(C)c12 has what recorded inhibition at 10 µM?
Solution: 76 to 100%

---

Biological target: KRas G12D mutant (Homo sapiens (Human), UniProt P01116, G12D)
Sequence (P01116 other isoform, or with tags, fused parts or gaps G12D): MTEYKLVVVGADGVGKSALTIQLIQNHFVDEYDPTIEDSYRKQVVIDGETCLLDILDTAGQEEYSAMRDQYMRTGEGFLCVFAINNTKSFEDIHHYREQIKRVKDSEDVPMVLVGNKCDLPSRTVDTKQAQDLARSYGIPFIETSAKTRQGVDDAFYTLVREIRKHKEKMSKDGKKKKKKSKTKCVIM
Experiment: Ras GTP Binding Domain Inhibition Assay, KRas G12D mutant
Settings: 20 μM; + SOS; Table 7; read-out: KRas G12D mutant + SOS: % inh.
assay-readout: inhibition at 20 µM (%)

- molecular-string: "COc1cc(Cn2c(-c3nccn3C)nc3sc(-c4ccn(C(C)C)n4)c(C)c3c2=O)ncn1"
  system-under-test: "KRas G12D mutant (Homo sapiens (Human), UniProt P01116, G12D)"
  inhibition at 20 µM, %: 0
- molecular-string: "COCCCCn1c(-c2nccn2C)nc2sc(-c3ccn(C(C)C)n3)c(C)c2c1=O"
  system-under-test: "KRas G12D mutant (Homo sapiens (Human), UniProt P01116, G12D)"
  inhibition at 20 µM, %: 0
- molecular-string: "COCCCOc1nc(-c2nccn2C)nc2sc(-c3ccn(C(C)C)n3)c(-c3ccccc3)c12"
  system-under-test: "KRas G12D mutant (Homo sapiens (Human), UniProt P01116, G12D)"
  inhibition at 20 µM, %: 0
- molecular-string: "COCCOc1nc(-c2nccn2C)nc2sc(-c3ccn(C(C)C)n3)c(C)c12"
  system-under-test: "KRas G12D mutant (Homo sapiens (Human), UniProt P01116, G12D)"
  inhibition at 20 µM, %: 0

---

System: MiaPaca2
Assay: MiaPaca2 proliferation
Type: cell-based
Settings: Homo sapiens, MIA PaCa-2; 10 μM; read-out: % inh of proliferation in MiaPaca2
Overview of recorded inhibition at 10 µM for various compounds

Solved entries:
- compound: "Cc1c(-c2ccn(C(C)C)n2)sc2nc(-c3nccn3C)nc(NCC3CN(C)CCO3)c12 (racemic) [Compound 25]"
  system-under-test: "MiaPaca2"
  observed-value: "46 to 75%"
- compound: "COCCO[C@H]1CC[C@@H](Nc2nc(-c3nccn3C)nc3sc(-c4ccn(C(C)C)n4)c(C)c23)C1 (racemic) [Compound 20]"
  system-under-test: "MiaPaca2"
  observed-value: "76 to 100%"
- compound: "COc1cccc(-c2sc3nc(-c4nccn4C)nc(N[C@@H]4CC[C@@H](OC)C4)c3c2C)c1F (racemic) [Compound 43]"
  system-under-test: "MiaPaca2"
  observed-value: "46 to 75%"

Problem: State the recorded inhibition at 10 µM for this entry: COc1cccc(Nc2nc(-c3nccn3C)nc3sc(-c4ccn(C(C)C)n4)c(C)c23)n1 [Compound 18]
Solution: 76 to 100%

Problem: Tell me the measured inhibition at 10 µM of COc1cccc(-c2sc3nc(-c4nccn4C)nc(N[C@H]4C[C@H](OC)C4)c3c2-c2ccccc2)c1F [Compound 40] , please.
Solution: 76 to 100%
